Biological target: Histamine N-Methyltransferase (HNMT) (Homo sapiens)
Construct: Recombinant Human Histamine N-Methyltransferase (rhHNMT, R&D Systems 7637-MT)
Experiment: fluorescence assay of histamine methylation by recombinant HNMT (ex […]/em […] nm)
Format: biochemical
Conditions: read-out: IC50
measured-property: IC50 (µM)

(I) Cc1nc(N)nc(N)c1-c1ccc(Cl)c(Cl)c1 [metoprine, reference compound]
(II) N#Cc1ccc2[nH]cc(CCCCN3CCN(c4ccc5oc(C(N)=O)cc5c4)CC3)c2c1
Query: Of I and II , which one carries the higher reported IC50? Answer format: the label of the selected item.
Response: II
(II: 45 µM, I: 0.0667 µM)

* * *

Biological target: Histamine N-Methyltransferase (HNMT) (Homo sapiens, UniProt P50135)
Construct: Recombinant Human Histamine N-Methyltransferase (rhHNMT, R&D Systems 7637-MT)
Sequence (P50135 whole entry): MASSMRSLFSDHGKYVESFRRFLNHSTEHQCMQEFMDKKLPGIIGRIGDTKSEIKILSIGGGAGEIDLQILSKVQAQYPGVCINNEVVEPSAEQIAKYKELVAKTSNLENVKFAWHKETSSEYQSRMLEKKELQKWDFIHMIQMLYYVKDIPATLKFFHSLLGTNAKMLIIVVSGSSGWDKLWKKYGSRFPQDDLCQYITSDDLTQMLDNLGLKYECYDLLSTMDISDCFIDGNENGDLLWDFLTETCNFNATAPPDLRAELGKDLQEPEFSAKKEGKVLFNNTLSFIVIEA
Assay: fluorescence assay of histamine methylation by recombinant HNMT (ex […]/em […] nm)
Type: biochemical
measured-property: pIC50
The meaning of pIC50 here: minus log10 of the concentration in molar units.

Query: Param item = CN1C[C@H](C(=O)N[C@]2(C)O[C@@]3(O)[C@@H]4CCCN4C(=O)[C@H](Cc4ccccc4)N3C2=O)C[C@@H]2c3cccc4[nH]cc(c34)C[C@H]21 [dihydroergotamine] ; retrieve measured pIC50.
Response: 4.14
